Values were extracted from patent EP0726261A1.

# Test system: Triticum aestivum
# procedure.text: Preemergence herbicidal activity (Example 67)
# Format: in vivo
# Set-up: scale not given here
# condition.info: pre; 800 g/ha; rated about 1-3 weeks after treatment
Entries and their herbicide rating, TRZAW
Just the number, please, no unit after it.

Solved cases (6 shown):
>>> print(df.to_string())
                                   compound  measured
0  CCCCc1nsc(C(=O)NC(C)c2cccs2)n1 (racemic) [Example 25]         0
1  C[C@H](NC(=O)c1nc(C=Cc2ccccc2)ns1)c1ccccc1 [Example 30]         0
2  C[C@H](NC(=O)c1nc(-c2ccc(Cl)cc2)ns1)c1ccccc1 [Example 27]         0
3  COc1ccc(-c2nsc(C(=O)NCc3cccs3)n2)cc1 [Example 36]         0
4  COc1ccc(-c2nsc(C(=O)N[C@@H](C)c3ccccc3)n2)cc1 [Example 2]         0
5  CC(NC(=O)c1nc(-c2ccc(Cl)cc2)ns1)c1cccs1 (racemic) [Example 26]         0

Now consider a different compound.
Q: Please indicate herbicide rating, TRZAW recorded for CCCCc1nsc(C(=O)N[C@@H](C)c2ccccc2)n1 [Example 32]
Ans: 0
